Here, each record is paired with measured zone of inhibition at 100 µg/mL data.
system: Pseudomonas aeruginosa; experiment: Antibacterial activity against Pseudomonas aeruginos by measuring zone of inhibition at 100 ug/ml after 24 hrs; format: functional; settings: read-out: IZ
reported_metric: zone of inhibition at 100 µg/mL (mm)

structure_string: Cc1cc2c(cc1C)Nc1c(c(=O)oc3ccc(Br)cc13)N2
reported_metric: zone of inhibition at 100 µg/mL
reported_measurement: 7

structure_string: Cc1ccc2oc(=O)c3c(c2c1)Nc1ccccc1N3
reported_metric: zone of inhibition at 100 µg/mL
reported_measurement: 4

structure_string: COc1ccc2oc(=O)c3c(c2c1)Nc1ccccc1N3
reported_metric: zone of inhibition at 100 µg/mL
reported_measurement: 7

structure_string: O=c1oc2ccc(Br)cc2c2c1Nc1ccccc1N2
reported_metric: zone of inhibition at 100 µg/mL
reported_measurement: 6

structure_string: O=c1oc2ccc(F)cc2c2c1Nc1ccccc1N2
reported_metric: zone of inhibition at 100 µg/mL
reported_measurement: 4

structure_string: COc1ccc2oc(=O)c3c(c2c1)Nc1cc(C)c(C)cc1N3
reported_metric: zone of inhibition at 100 µg/mL
reported_measurement: 10

structure_string: Cc1cc2c(cc1C)Nc1c(c(=O)oc3ccccc13)N2
reported_metric: zone of inhibition at 100 µg/mL
reported_measurement: 4

structure_string: Cc1cc2c(cc1C)Nc1c(c(=O)oc3ccc(F)cc13)N2
reported_metric: zone of inhibition at 100 µg/mL
reported_measurement: 8

structure_string: O=c1oc2ccccc2c2c1Nc1ccccc1N2
reported_metric: zone of inhibition at 100 µg/mL
reported_measurement: 3

structure_string: O=c1oc2ccc(Cl)cc2c2c1Nc1ccccc1N2
reported_metric: zone of inhibition at 100 µg/mL
reported_measurement: 5

structure_string: Cc1cc2c(cc1C)Nc1c(c(=O)oc3ccc(Cl)cc13)N2
reported_metric: zone of inhibition at 100 µg/mL
reported_measurement: 9

structure_string: O=c1oc2ccc([N+](=O)[O-])cc2c2c1Nc1ccccc1N2
reported_metric: zone of inhibition at 100 µg/mL
reported_measurement: 4

structure_string: Cc1ccc2oc(=O)c3c(c2c1)Nc1cc(C)c(C)cc1N3
reported_metric: zone of inhibition at 100 µg/mL
reported_measurement: 5

structure_string: Cc1cc2c(cc1C)Nc1c(c(=O)oc3ccc([N+](=O)[O-])cc13)N2
reported_metric: zone of inhibition at 100 µg/mL
reported_measurement: 5

====

Here, each record is paired with measured zone of inhibition at 100 µg/mL data.
tested on: Staphylococcus aureus; experiment: Antibacterial activity against Staphylococcus aureus by measuring zone of inhibition at 100 ug/ml after 24 hrs; format: functional; settings: read-out: IZ
reported_metric: zone of inhibition at 100 µg/mL (mm)

structure_string: Cc1ccc2oc(=O)c3c(c2c1)Nc1ccccc1N3
system: Staphylococcus aureus
reported_metric: zone of inhibition at 100 µg/mL
reported_measurement: 3
--
structure_string: COc1ccc2oc(=O)c3c(c2c1)Nc1ccccc1N3
system: Staphylococcus aureus
reported_metric: zone of inhibition at 100 µg/mL
reported_measurement: 8
--
structure_string: Cc1cc2c(cc1C)Nc1c(c(=O)oc3ccc(Cl)cc13)N2
system: Staphylococcus aureus
reported_metric: zone of inhibition at 100 µg/mL
reported_measurement: 7
--
structure_string: Cc1ccc2oc(=O)c3c(c2c1)Nc1cc(C)c(C)cc1N3
system: Staphylococcus aureus
reported_metric: zone of inhibition at 100 µg/mL
reported_measurement: 5
--
structure_string: O=c1oc2ccc([N+](=O)[O-])cc2c2c1Nc1ccccc1N2
system: Staphylococcus aureus
reported_metric: zone of inhibition at 100 µg/mL
reported_measurement: 5
--
structure_string: COc1ccc2oc(=O)c3c(c2c1)Nc1cc(C)c(C)cc1N3
system: Staphylococcus aureus
reported_metric: zone of inhibition at 100 µg/mL
reported_measurement: 11
--
structure_string: O=c1oc2ccc(Cl)cc2c2c1Nc1ccccc1N2
system: Staphylococcus aureus
reported_metric: zone of inhibition at 100 µg/mL
reported_measurement: 6
--
structure_string: O=c1oc2ccccc2c2c1Nc1ccccc1N2
system: Staphylococcus aureus
reported_metric: zone of inhibition at 100 µg/mL
reported_measurement: 2
--
structure_string: Cc1cc2c(cc1C)Nc1c(c(=O)oc3ccccc13)N2
system: Staphylococcus aureus
reported_metric: zone of inhibition at 100 µg/mL
reported_measurement: 4
--
structure_string: Cc1cc2c(cc1C)Nc1c(c(=O)oc3ccc(Br)cc13)N2
system: Staphylococcus aureus
reported_metric: zone of inhibition at 100 µg/mL
reported_measurement: 9
--
structure_string: Cc1cc2c(cc1C)Nc1c(c(=O)oc3ccc([N+](=O)[O-])cc13)N2
system: Staphylococcus aureus
reported_metric: zone of inhibition at 100 µg/mL
reported_measurement: 5
--
structure_string: O=c1oc2ccc(Br)cc2c2c1Nc1ccccc1N2
system: Staphylococcus aureus
reported_metric: zone of inhibition at 100 µg/mL
reported_measurement: 8
--
structure_string: Cc1cc2c(cc1C)Nc1c(c(=O)oc3ccc(F)cc13)N2
system: Staphylococcus aureus
reported_metric: zone of inhibition at 100 µg/mL
reported_measurement: 6
--
structure_string: O=c1oc2ccc(F)cc2c2c1Nc1ccccc1N2
system: Staphylococcus aureus
reported_metric: zone of inhibition at 100 µg/mL
reported_measurement: 5
